Molecular target: T1, human CTLA-4 (human, UniProt P16410 36-223)
T1 construct: whole, on cells; also called huCTLA4
T1 sequence (P16410 36-223): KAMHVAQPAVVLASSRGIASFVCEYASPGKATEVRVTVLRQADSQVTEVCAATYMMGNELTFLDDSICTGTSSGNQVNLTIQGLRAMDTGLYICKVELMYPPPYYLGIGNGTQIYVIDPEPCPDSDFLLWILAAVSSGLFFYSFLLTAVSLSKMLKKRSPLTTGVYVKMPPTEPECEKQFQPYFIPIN
Test: flow cytometry, CHO cells stably expressing huCTLA4, 33.3 nM, PE anti-human Fc
reported_metric: Fold change to WT CD80 (fold)
Quick note: give the figure in fold, leave out the unit.

- binder: "CD80 WT IgV-Fc (Fc fusion, not shown: a dimerising Fc or GST, also called WT CD80-IgV-Fc; wild-type CD80 IgV-Fc) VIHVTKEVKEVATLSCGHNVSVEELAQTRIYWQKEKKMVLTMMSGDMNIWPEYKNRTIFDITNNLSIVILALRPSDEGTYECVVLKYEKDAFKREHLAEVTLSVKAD"
  reported_metric: "Fold change to WT CD80"
  test_value: 1

Sample S15T/H18Y/E35D/M47V/T62A/N64S/A71G/L85Q/D90N CD80 IgV-Fc (Fc fusion, not shown: a dimerising Fc or GST) VIHVTKEVKEVATLTCGYNVSVEELAQTRIYWQKDKKMVLTMMSGDVNIWPEYKNRTIFDIANSLSIVILGLRPSDEGTYECVVQKYEKNAFKREHLAEVTLSVKAD ; Fold change to WT CD80 observed: 10.7

Reported Fold change to WT CD80 for H18Y/V22A/E35D/T41S/M47V/T62N/A71G/A91G CD80 IgV-Fc (Fc fusion, not shown: a dimerising Fc or GST) VIHVTKEVKEVATLSCGYNVSAEELAQTRIYWQKDKKMVLSMMSGDVNIWPEYKNRTIFDINNNLSIVILGLRPSDEGTYECVVLKYEKDGFKREHLAEVTLSVKAD was 10

# Fold change to WT CD80 of E35D/M47L/V68M/A71G/L85Q/D90G CD80 IgV-Fc (Fc fusion, not shown: a dimerising Fc or GST) VIHVTKEVKEVATLSCGHNVSVEELAQTRIYWQKDKKMVLTMMSGDLNIWPEYKNRTIFDITNNLSIMILGLRPSDEGTYECVVQKYEKGAFKREHLAEVTLSVKAD = 10.1
